Tested on: PC-3
ASSAY_NOTES: Growth inhibitory activity against PC-3 (human prostate) cancer cell line at 100 uM dose.
Assay type: functional
Cell survival by entry:
// return numeric value only (unit: %, not printed)

Here is how some molecules turned out for Cell survival.
# SMILES_TEXT, VALUE_UNITS, Cell survival
data = [
    ("COc1ccc2c(C[C@@H]3NC(=O)[C@@H]4CCCN4C3=O)c(CC=C(C)C)[nH]c2c1", "%", 95.6),
    ("COc1ccc2c(C[C@H]3NC(=O)[C@H]4CCCN4C3=O)c(CC=C(C)C)[nH]c2c1", "%", 83.7),
]

// query Look up Cell survival with PC-3 for this molecule: "CC(C)=CCc1[nH]c2ccccc2c1C[C@@H]1NC(=O)[C@@H]2CCCN2C1=O"
// result 68.9

// query Look up Cell survival with PC-3 for this molecule: "CC(C)=CCc1[nH]c2ccccc2c1C[C@@H]1NC(=O)[C@H]2CCCN2C1=O"
// result 0.2
